B1: TPR t1 (parent)
chain: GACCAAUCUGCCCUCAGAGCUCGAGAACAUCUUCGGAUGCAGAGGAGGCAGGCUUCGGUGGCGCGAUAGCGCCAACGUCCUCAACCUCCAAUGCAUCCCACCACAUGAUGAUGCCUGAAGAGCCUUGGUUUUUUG

- Variants of: B1
- Experiment Description: polymerase ribozyme fitness, log enrichment relative to wild type (log ratio); higher = more active; in vitro selection for triplet polymerase activity

{"columns": ["Residues", "polymerase ribozyme fitness (log ratio)"],
 "data": [
  ["GACUAAUCUGCCCUCAGAGCUCGAGAACAUCUUAGGAUGCAGAGGAGGCAGGCUUCGGUGGCGCGAUAGCCCCAACGUCCUCGACCUCCAAUGCAUCUCACCACAUGAUGAAGCCUGAAGAGCCUUGGUUUUUUG [C4U C34A G71C A83G C98U U112A]", -5.16],
  ["GACCAAUCUGCCCUCAGAGCUCGAGAAGAUCUUCGGAUGCAGAGGAGGCAGGCUUCGGUGGCUCGAUAGCGCCAACGUCCUCAACCUCCAAUGCAUCCCACCACAUGAUGAUGCCUGAAGAGCCUUGGUUUUUUG [C28G G63U]", -4.26],
  ["GACCAAUCUGCCCUCAGAGCUCGAGAACAUCUUCGGAUGCAGAGGAGGCAGGCUUCGGUGGCGCGAUAGCGCCAACGUCCUCAACCUCCCAUGCAUCCCACCAUAUGAUGAUGCCUGAAGAGCCUUGGUUUUUUG [A90C C104U]", -0.65],
  ["GACCAAUCUACCCUCAGAGCUCGAGAACAUCUUCGGAUGCAGAGGAGGCAGGCUUCGGUGGCGCGAUAGCGCCGACGUCCUCAACCUCCAAUGCAUUCCAUCACGUGAUGAUGCCUGAAGAGCCUUGGUGUUUUG [G10A A74G C97U C101U A105G U130G]", -5.19],
  ["GACCAAUCUGCCCUUAGUGCUCGAGAACAUCUUUGGAUGCGGAGGAGCCAGGCUUCGGUGGCGCGAUAGCGCCAACGUCCUCAACCUCCAAUGCAUCCCACCACAAGAUGGUGCCUGAAGAGCGUUGGUUUUUUG [C15U A18U C34U A41G G48C U106A A111G C124G]", -6.92],
  ["GACCCAGCUGCCCUCAGAGCUCGAGAACAUCUUCGGAUGCAGAGGAGGCAGGCAUCGGUGGCGCGAUAGCGUCAACGUCCUCAACCUCCAAUGCAUCCCACCACAUGAUCAUGCCUGAAGAGCCUUGGUUUUUUG [A5C U7G U54A C72U G110C]", -4.62],
  ["GACCAAUCUGCCCUCAGAGCUCGAGAACAUCUUCGGAGGCAGAGGAGGCAGGCUGCGGUGGCGCGAUAGCGCCAACGUCCUCAACCUCCAAUGCAUCCCACCACAUGAUGAUGCCUGAAGAGCCUUGGUUUUUUG [U38G U55G]", 0.414],
  ["GACCAAUCUGCCCUCAGAGCUCGAGAACAUCUUCGGAUGCAGAGGAGGCAGGCUUCGGUGGCGCGAUAGCGCCAACGUCCUCAACCUCCAAUGCAUCCCACCACAUGAUGAUGCCCGAGGAGCCUUGGUUUUUUG [U116C A119G]", 1.96],
  ["GACCAAUCUGCCGUCAGAGCUGGAGAACAUCUUCGGAUGCAGAGGAGGCAGGCUUCGGUGGCGCGAUAGCGGCAACGUCCUCAACCUCCAAUGUAUCCAACCACAUGAUGAUGCCUGAACAGCCUUGGUUUUUUG [C13G C22G C72G C94U C99A G120C]", -6.57],
  ["GACCAAUCUGCCCUCAGAGCUCGAGAACAUCUUCGGAUGCAGAGGAGGCAGGCUUCGGUGGGGCGAUAGCGCCAACGUCCUCAACCUCCAAUGCAUCCCACCACACGAUGAUGCCUGAAGAGCCUUGGUUAUUUG [C62G U106C U131A]", -2.52],
  ["GACCAAUCUGCCCUCAGAGCUCGAGAACAUCUUCGGAUGCAGAGGAAGCAGGCUACGGUUGCGCGAUAGCGCCAACGUCCUCAACCUCCUAAGCAUCCCACCACAUGAUGAUGCCUGAAGAGCCUUGGUUUUUUG [G47A U55A G60U A90U U92A]", -2.67],
  ["GACCAAUCUGCCCUCAGAGCUCGAGAGCAUCUUCGGAUGCAGAGGAGGCAGGCUUCGGUGGCGCGAUAGCGCCAACGUCCUCAACUUCCAAUGCAUCCCACCACAUGAUGAUGCCUGAAGAGCCUUGGUUUUUUG [A27G C86U]", -2.44],
  ["GACCUAUCUGCCCUCAGAGCUCGAGAACAUCUUCGGAUGCAGAGGAGGCAGGCUUCGGUGGCGCGAUAGCGCCAACGUCCACAACCUCCAAUGCAUCCCACCACAUGAUGAUGCCUGAAGAGCCUUGGUUUUUUG [A5U U81A]", -1.15],
  ["GACCAAUCUGCCGUCAGAGUUCGAGAACAUCUUCGGAUGCAGAGGAGGCAGGCUUCGGUGGCGCGAUAGCGCCAACGUCCUCAACCUCCAAUACAUCCCACCACAUGAUGAUGCCUGAAGAGCAUUGGUUUUUUG [C13G C20U G93A C124A]", -1.04],
  ["GACCUAUCUGCCCUCAGAGCUCGAGAACAUCUUCGGAUGCAGAGGAGGCAGGCUUCGGUGGCGCGAUAGCGCCAACGUCCUCAACCUCCAAUGCAUCCCACCACAUGAUGAAGCCUGUAGAGCCCUGGUUUUUUG [A5U U112A A118U U125C]", 0.369],
  ["GACCAAUCUGCCCUCAGAGCUCGAGAAGAUCCUCGGAUGCAGAGGAGGCAGGCUUGGGUGGCGCGAUAGCGCCAACGUCCUCAACCUCCAAUGCAUCCCACCACAUGAUGAUGCCUAAAGAGCCUUGGUUUUUUG [C28G U32C C56G G117A]", -5.54],
  ["GACCAAUCUGCCCUCAGAGCUCGAGAACAUCUUCGGAUGCAGAGGAGGCAGGCUUCGGUGGCGCGAUAGCGCCAACGUCCUCAACCUCAAAUGCAUCCCACCACAUGAUAAUGCCUGAAGAGCCUUGGUUUUUUG [C89A G110A]", -3.58],
  ["GACCAGUCUGCCCUCAGAGCUCGAGAACAUCUUCGGAUGCAGAGGAGGCAGGCUUGGGUGGCGCGAUAACGCCAACGUACUCAACCUCCAAUGCAUCCCACCACAUGAUGAUGCCUGAAGAGCCUUGGUUUUUUG [A6G C56G G69A C79A]", -5.03],
  ["GACCAAUCUGCCCUCAGAGCUCGAGAACAUCUUCGGAUGCAGAGGAGACAGGCUUCGGUGGCACGAUAGCGCCAGCGUCCUCAACCUCCAAUGCAUCCCACCACAUGAUGAUGCCUGAAGAGCCUUGGUUUUUUG [G48A G63A A75G]", -1.21],
  ["GACCAAUCUGCUCUCAGAGCUCGAGAACAUCUUCGGAUGCAGAGGAGGCAGUGUUCGGUGGCGCGAUAGCGCCAACGGCCUCAACCUCCAAUGCAUCCCACCACAUGAUGAUGCCUGAAGAGCCUUGGUUUUUUG [C12U G52U C53G U78G]", -0.0807],
  ["GACCUAUCUGCCCUGAGAGCUCGAGAACAUCUUCGGAUGCAGAGGAGGCAGGCUUCGGUGGCGCGAUAGCGGCAACGUCCUCAACCUCCAAUGCAUCCCACCACAUGAUGAUGCCUGAGGUGCCUUGGUUUUUUG [A5U C15G C72G A119G A121U]", 0.915],
  ["GACCAAUCUCCCCUCAGAGCUCGAGAACAUCUUCGGAUGCAGAGGAGGCAGGCUUCGGUGGUGCGAUAGCGCCAACGUCCUCAACCUCCAAUGCAUCCCACCACAUGAUGAUGCCUGAAGAGCCUUGGUUUUUUG [G10C C62U]", -0.917]
]}

Origin of measurements: the RNAGym collection of RNA variant scans (doi:10.1073/pnas.2313332121)
